- Test: Effect of surfactant (polysorbate 80, Tween) on solubility in phosphate buffer pH 7.2 (Example 6)
- Type: physicochemical
- Recorded Conditions: sodium phosphate buffer, aqueous buffer; 200 mM phosphate, pH 7.2, Tween 0 % (w/v); read-out: Solubility of L-lactate salt of compound of formula (I)
Assay Readout: solubility

>>> result("CC(C)c1cc(C(=O)N2Cc3ccc(CN4CCN(C)CC4)cc3C2)c(O)cc1O.C[C@H](O)C(=O)O")
"21 mg/mL"

* * *

- Test: physchem
- Format: physicochemical
- Recorded Conditions: aqueous buffer, thermodynamic from solid; sodium phosphate buffer 50 mM/pH 5.5; pH of supernatant 5.18; read-out: L-Lactate Salt of Compound of Formula (I) Concentration
Assay Readout: solubility thermodynamic (mg/mL)

>>> quantitative_readout("CC(C)c1cc(C(=O)N2Cc3ccc(CN4CCN(C)CC4)cc3C2)c(O)cc1O.C[C@H](O)C(=O)O")
75.9

Cited source: patent US20180169117A1
